Source of measurements: the supplement of paper PMC10724198

Test system: Saccharomyces cerevisiae;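 also: PSI is a weighted mean of sequencing reads over stability bins, variants kept only with over 10 reads, mCherry proximal and sfGFP distal, peptide attached via GGGS linker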
Method: protein stability index of tFT-peptide fusion (C-terminal peptide) (PSI (0-1 scale)); higher = more stable (slower turnover)
Condition: genetic background: wild type; temperature: 30 C
Value kind: protein stability index
Reply with the value as a number alone.

Completed entries (count: 8):
PPPAPPLILVLP : 0.539
TYIRRTICGVLS : 0.587
AQERDGAIKKTH : 0.7
KKGYKTVETRIS : 0.69
APRKTPPHPPPS : 0.689
FWCVFVFFVCVG : 0.275
ARPAPHRSRRPS : 0.68
FSGLSPPRPEFV : 0.708

Q: Lab note: need protein stability index for PPPPNPPRPSSR on Saccharomyces cerevisiae, anyone have it?
Result: 0.758

Q: Lab note: need protein stability index for SPLTTFPPHRVS on Saccharomyces cerevisiae, anyone have it?
Result: 0.711

Q: Lab note: need protein stability index for ARNMGLFVFNLR on Saccharomyces cerevisiae, anyone have it?
Result: 0.678

Q: Lab note: need protein stability index for GGGGGGGWGAVG on Saccharomyces cerevisiae, anyone have it?
Result: 0.688

Q: Lab note: need protein stability index for QPGTRRNNHIQV on Saccharomyces cerevisiae, anyone have it?
Result: 0.704

Q: Lab note: need protein stability index for RGYSAIWGCKMN on Saccharomyces cerevisiae, anyone have it?
Result: 0.381
